- assayed-target: human PPARγ receptor (Homo sapiens)
- Construct: corresponding to Ser204-Tyr506 for human PPARγ1 receptor and human PPARγ2; expressed in transfected cells; host or cells: CV-1 cells (pSG5-based expression vector)
- Sequence (P37231 204-505 limits assumed): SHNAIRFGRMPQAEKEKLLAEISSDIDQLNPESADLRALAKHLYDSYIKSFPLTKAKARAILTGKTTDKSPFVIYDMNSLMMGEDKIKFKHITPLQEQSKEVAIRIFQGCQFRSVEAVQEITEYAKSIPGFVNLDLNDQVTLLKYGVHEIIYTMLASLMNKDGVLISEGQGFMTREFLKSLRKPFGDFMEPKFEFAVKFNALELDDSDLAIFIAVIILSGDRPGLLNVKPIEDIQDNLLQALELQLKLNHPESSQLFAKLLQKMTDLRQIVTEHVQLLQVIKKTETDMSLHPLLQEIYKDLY
- procedure-summary: Luciferase reporter assay of PPARγ agonist activity (Gal4-PPARγ chimera receptor in CV-1 cells)
- Type: cell-based
- setup-conditions: CV-1, 0.1 μM compound, luciferase activity with 1 μM Pioglitazone taken as 100, read-out: PPAR γ agonist activity, relative activity
Counter-ions that a name gives are not always drawn.
measure: Emax at 0.1 µM (%)

> print(dat)
                                   compound  test.result
1  CCCCCCCCOc1c(COc2ccc(CC(OCC)C(=O)O)cc2)cnc2ccc(OC)cc12 (stereo not shown)         13.5
2  CNC(=O)/C(=C/c1ccc(OCc2cnc3ccc(OC)cc3c2OC(C)C)cc1)C(C)=O [Example 25 (144), hydrochloride]          0.7
3  CCOC(Cc1ccc(OCc2cnc3ccc(OC)cc3c2OC(C)C)cc1)C(=O)O (stereo not shown)           85
4  CCOC(Cc1ccc(OCc2cnc3c(C(F)(F)F)cccc3c2OC(C)C)cc1)C(=O)O (stereo not shown)         19.6
5  CCOC(Cc1ccc(OCc2cc(OC)c3ccccc3n2)cc1)C(=O)O (stereo not shown)         75.2
6  CCOC(=O)C(Cc1ccc(OC)c(OCc2cnc3ccc(OC)cc3c2OC(C)C)c1)C(=O)OCC [Example 28 (129), hydrochloride]          1.3
7  COc1ccc2ncc(COc3ccc(CC(Sc4ccccc4)C(=O)O)cc3)c(OC(C)C)c2c1 (stereo not shown)         25.2
